# target desc: CRBN/DDB1 (Homo sapiens)
# assay name: HTRF binding assay (displacement of Cy5-thalidomide probe from CRBN/DDB1)
test readout: IC50

If you can, please state the reported IC50 value of CC(C)(C)C1CN(C(=O)Nc2ccc3c(c2)CN(C2CCC(=O)NC2=O)C3=O)c2ccccc21 (stereo not shown) .
0.1 to 1 µM

###

# assay name: Oral pharmacokinetics in male BALB/c mice
# Type: in vivo
# test context: mouse, PO 5 mg/kg (cassette dose), plasma, mean ± SD
test readout: AUC(0-t)
# include the unit after the value

Which AUC(0-t) value belongs to COC[C@H]1Cc2c(F)cccc2N1C(=O)Nc1ccc2c(c1)CN(C1CCC(=O)NC1=O)C2=O (stereo partly shown) [Compound 303] ?
12300 ng·h/mL

###

# target desc: CK1α (Homo sapiens)
# Construct: HEK293 clonal lines with CRISPR KI HiBiT tag on CSNK1A1
# assay name: CK1α NanoBit Assay (HiBiT-tagged CSNK1A1, HEK293 clonal lines)
# Format: cell-based
# test context: HEK293 HiBiT-CSNK1A1/LgBiT cells, 24 h incubation
Reported DC50 is given for each of the following compounds.

Solved cases (6 shown):
O=C1CCC(N2Cc3cc(NC(=O)N4Cc5cccc(F)c5C4)ccc3C2=O)C(=O)N1 (stereo not shown) : < 0.1 µM
O=C1CCC(N2Cc3cc(NC(=O)N4CCc5cccnc54)ccc3C2=O)C(=O)N1 (stereo not shown) : 0.1 to 1 µM
COC[C@H]1CN(C(=O)Nc2ccc3c(c2)CN(C2CCC(=O)NC2=O)C3=O)c2cccc(C(F)(F)F)c21 (stereo partly shown) : < 0.1 µM
N#Cc1ccc(C2CN(C(=O)Nc3ccc4c(c3)CN(C3CCC(=O)NC3=O)C4=O)C2)cc1 (stereo not shown) : 0.1 to 1 µM
O=C1CCC(N2Cc3cc(NC(=O)N4CC5(CCOCC5)c5ccccc54)ccc3C2=O)C(=O)N1 (stereo not shown) : < 0.1 µM
COCC1C2c3ccccc3N(C(=O)Nc3ccc4c(c3)CN(C3CCC(=O)NC3=O)C4=O)C12 (stereo not shown) : < 0.1 µM

Now consider the entry below.
Request: DC50, test system CK1α (Homo sapiens), entry COCC1c2ccc(C(F)(F)F)cc2CN1C(=O)Nc1ccc2c(c1)CN(C1CCC(=O)NC1=O)C2=O (stereo not shown)
< 0.1 µM

###

# target desc: CRBN/DDB1 (Homo sapiens, UniProt Q96SW2)
# Sequence (Q96SW2 whole entry, species assumed): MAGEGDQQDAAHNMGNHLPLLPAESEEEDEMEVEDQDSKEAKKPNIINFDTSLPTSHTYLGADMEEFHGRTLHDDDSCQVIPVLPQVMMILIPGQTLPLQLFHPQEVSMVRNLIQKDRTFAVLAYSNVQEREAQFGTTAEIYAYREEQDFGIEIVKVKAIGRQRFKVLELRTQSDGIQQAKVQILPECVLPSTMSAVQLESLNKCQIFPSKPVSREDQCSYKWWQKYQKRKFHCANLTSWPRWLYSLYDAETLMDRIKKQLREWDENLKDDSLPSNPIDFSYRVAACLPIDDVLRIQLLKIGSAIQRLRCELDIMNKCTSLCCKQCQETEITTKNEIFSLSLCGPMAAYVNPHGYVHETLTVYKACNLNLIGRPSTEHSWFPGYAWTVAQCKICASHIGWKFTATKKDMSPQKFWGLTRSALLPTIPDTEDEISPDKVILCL
# Sequence (Q16531 whole entry partner, species assumed): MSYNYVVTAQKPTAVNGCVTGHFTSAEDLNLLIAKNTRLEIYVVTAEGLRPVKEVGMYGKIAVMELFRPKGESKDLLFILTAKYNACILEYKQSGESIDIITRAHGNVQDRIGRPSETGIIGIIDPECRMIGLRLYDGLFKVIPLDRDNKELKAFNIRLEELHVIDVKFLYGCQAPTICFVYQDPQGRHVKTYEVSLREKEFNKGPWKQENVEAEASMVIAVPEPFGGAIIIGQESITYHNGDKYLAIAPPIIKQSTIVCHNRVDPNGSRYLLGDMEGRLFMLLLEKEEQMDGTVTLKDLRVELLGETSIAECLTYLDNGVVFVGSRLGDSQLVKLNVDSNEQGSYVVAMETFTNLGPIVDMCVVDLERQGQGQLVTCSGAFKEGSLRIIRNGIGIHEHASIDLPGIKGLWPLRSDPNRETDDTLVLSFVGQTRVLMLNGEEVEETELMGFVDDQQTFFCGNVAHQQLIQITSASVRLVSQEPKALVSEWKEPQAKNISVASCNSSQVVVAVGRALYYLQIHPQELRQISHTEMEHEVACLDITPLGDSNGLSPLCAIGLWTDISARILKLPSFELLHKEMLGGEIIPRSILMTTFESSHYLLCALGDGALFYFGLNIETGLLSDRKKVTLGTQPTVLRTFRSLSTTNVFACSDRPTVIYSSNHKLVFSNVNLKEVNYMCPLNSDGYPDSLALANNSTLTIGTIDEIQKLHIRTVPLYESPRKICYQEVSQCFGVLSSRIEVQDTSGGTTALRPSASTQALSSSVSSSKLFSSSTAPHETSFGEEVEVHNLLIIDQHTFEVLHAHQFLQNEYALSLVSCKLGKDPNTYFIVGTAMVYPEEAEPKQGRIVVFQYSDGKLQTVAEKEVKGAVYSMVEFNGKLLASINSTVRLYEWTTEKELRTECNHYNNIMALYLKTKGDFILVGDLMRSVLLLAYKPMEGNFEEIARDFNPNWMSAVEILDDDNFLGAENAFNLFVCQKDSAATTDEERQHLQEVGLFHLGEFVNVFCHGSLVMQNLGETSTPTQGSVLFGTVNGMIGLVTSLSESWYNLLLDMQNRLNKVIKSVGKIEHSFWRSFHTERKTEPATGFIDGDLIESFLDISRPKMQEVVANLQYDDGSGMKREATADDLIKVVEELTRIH
# assay name: HTRF binding assay (displacement of Cy5-thalidomide probe from CRBN/DDB1)
# test context: CRBN/DDB1 2.5 nM, Cy5-Thalidomide 100 nM, 30 min; geometric mean; read-out: HTRF_Thali_Disp_DR_geo_IC50
pIC50: −log10 of the molar value.
test readout: pIC50

Solved cases (5 shown):
C[C@@H]1Cc2ccccc2N1C(=O)Nc1cc2c(cc1F)C(=O)N(C1CCC(=O)NC1=O)C2 (some centres unmarked) : 6.00 to 7.00
COC(C)c1cccc2c1CCN2C(=O)Nc1ccc2c(c1)CN(C1CCC(=O)NC1=O)C2=O (centres unmarked) : 6.00 to 7.00
COC[C@@H]1Cc2ccccc2N1C(=O)Nc1ccc2c(c1)CN(C1CCC(=O)NC1=O)C2=O (stereo in doubt) [Compound 334] : < 6.00
O=C1CCC(N2Cc3cc(NC(=O)N4CCc5ccc(C6CC6)cc54)ccc3C2=O)C(=O)N1 (centres unmarked) : 6.00 to 7.00
CNC(=O)[C@@H]1Cc2ccccc2N1C(=O)Nc1ccc2c(c1)CN(C1CCC(=O)NC1=O)C2=O (some centres unmarked) : 6.00 to 7.00

Field request: pIC50 | item: O=C1CCC(N2Cc3cc(NC(=O)N4Cc5ccccc5C4)ccc3C2=O)C(=O)N1 (centres unmarked)
6.00 to 7.00

Fill in: pIC50 of O=C1CCC(N2Cc3cc(NC(=O)N4CCc5ccc(Cl)cc54)ccc3C2=O)C(=O)N1 (centres unmarked) is ___
6.00 to 7.00

Look up pIC50 for this molecule: CC1CN(C(=O)Nc2ccc3c(c2)CN(C2CCC(=O)NC2=O)C3=O)Cc2ccccc21 (centres unmarked)
6.00 to 7.00

###

# assay name: Oral pharmacokinetics in male BALB/c mice
# Format: in vivo
# test context: mouse, PO 10 mg/kg, plasma, mean ± SD
test readout: Cmax (ng/mL)
Please state the figure in ng/mL; there is no need to write the unit.

Here are 2 compounds together with their reported answers.
COCC1c2ccc(C3CC3)cc2CN1C(=O)Nc1ccc2c(c1)CN(C1CCC(=O)NC1=O)C2=O (stereo not drawn) [Compound 335] : 10600
C[C@@H]1Cc2ccccc2N1C(=O)Nc1ccc2c(c1)CN(C1CCC(=O)NC1=O)C2=O (stereo partly drawn) [Compound 102] : 361

Tell me the measured Cmax of COC[C@@H]1Cc2ccccc2N1C(=O)Nc1ccc2c(c1)CN(C1CCC(=O)NC1=O)C2=O (stereo partly drawn) [Compound 288] , please.
6870

###

# assay name: Oral pharmacokinetics in male BALB/c mice
# Assay type: in vivo
# test context: mouse, PO 5 mg/kg (cassette dose), plasma, mean ± SD
test readout: AUC (ng·h/mL)
Number only, in ng·h/mL; omit the unit.

Tell me the measured AUC of COC[C@H]1Cc2c(F)cccc2N1C(=O)Nc1ccc2c(c1)CN(C1CCC(=O)NC1=O)C2=O (stereo partly shown) , please.
12700

###

# target desc: CK1α (Homo sapiens, UniProt P48729)
# Construct: HEK293 clonal lines with CRISPR KI HiBiT tag on CSNK1A1
# Sequence (P48729 whole entry, one chain of several): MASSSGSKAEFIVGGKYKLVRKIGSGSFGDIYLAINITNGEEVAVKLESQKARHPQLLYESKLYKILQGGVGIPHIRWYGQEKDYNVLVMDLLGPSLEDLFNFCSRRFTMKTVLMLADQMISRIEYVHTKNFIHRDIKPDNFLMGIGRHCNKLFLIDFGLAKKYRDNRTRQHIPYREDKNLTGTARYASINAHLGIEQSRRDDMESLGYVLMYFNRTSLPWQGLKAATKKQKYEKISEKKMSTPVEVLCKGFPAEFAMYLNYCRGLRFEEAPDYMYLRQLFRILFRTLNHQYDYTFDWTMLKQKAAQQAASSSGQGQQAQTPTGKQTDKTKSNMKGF
# assay name: CK1α NanoBit Assay (HiBiT-tagged CSNK1A1, HEK293 clonal lines)
# Format: cell-based
# test context: HEK293 HiBiT-CSNK1A1/LgBiT cells, 24 h incubation
test readout: DC50

Completed entries (count: 5):
COC[C@H]1CN(C(=O)Nc2ccc3c(c2)CN(C2CCC(=O)NC2=O)C3=O)c2ccc(C(F)(F)F)cc21 (stereo partly shown) : < 0.1 µM
COCC1c2ccc(C3CC3)cc2CN1C(=O)Nc1ccc2c(c1)CN(C1CCC(=O)NC1=O)C2=O (stereo not shown) : < 0.1 µM
COC[C@@H]1Cc2c(C3CC3)cccc2N1C(=O)Nc1ccc2c(c1)CN(C1CCC(=O)NC1=O)C2=O (stereo partly shown) : < 0.1 µM
O=C1CCC(N2Cc3cc(NC(=O)N4CC(c5ccccc5)C4)ccc3C2=O)C(=O)N1 (stereo not shown) : 0.1 to 1 µM
O=C1CCC(N2Cc3cc(NC(=O)N4Cc5ccccc5C5(CC5)C4)ccc3C2=O)C(=O)N1 (stereo not shown) : < 0.1 µM

Query (molecule): O=C1CCC(N2Cc3cc(NC(=O)N4CCc5cc(Cl)ccc54)ccc3C2=O)C(=O)N1 (stereo not shown) ; field requested: DC50
< 0.1 µM

What value of DC50 has been reported for the following molecule? O=C1CCC(N2Cc3cc(NC(=O)N4CCC(c5ccccc5)C4)ccc3C2=O)C(=O)N1 (stereo not shown)
< 0.1 µM

Requested read-out: DC50. Entry: CC1CN(C(=O)Nc2ccc3c(c2)CN(C2CCC(=O)NC2=O)C3=O)c2ccccc21 (stereo not shown) [Compound 119]
< 0.1 µM

###

Measured GI50, listed per entry.
# Tested on: LS180 cell line
# assay name: Growth inhibition, CyQUANT Direct Cell Proliferation Assay, LS180
# Type: cell-based
# test context: Homo sapiens; LS180, 120 to 168 hours; read-out: LS180 GI50

Here is how some compounds turned out for GI50.
Cc1ccc2c(c1)CCN2C(=O)Nc1ccc2c(c1)CN(C1CCC(=O)NC1=O)C2=O (stereo not shown) : 100 to 1000 nM
CC1(c2ccc3c(c2)CCN3C(=O)Nc2ccc3c(c2)CN(C2CCC(=O)NC2=O)C3=O)CC1 (stereo not shown) : 100 to 1000 nM

Identify the measured GI50 of O=C1CCC(N2Cc3cc(NC(=O)N4CCc5c(F)cccc54)ccc3C2=O)C(=O)N1 (stereo not shown) for LS180 cell line.
100 to 1000 nM

Return GI50 measured with LS180 cell line given this compound: C[C@H]1Cc2ccccc2N1C(=O)Nc1ccc2c(c1)CN(C1CCC(=O)NC1=O)C2=O (stereo partly shown)
< 100 nM

###

# target desc: CK1α (Homo sapiens)
# Construct: HEK293 clonal lines with CRISPR KI HiBiT tag on CSNK1A1
# assay name: CK1α NanoBit Assay (HiBiT-tagged CSNK1A1, HEK293 clonal lines)
# Format: cell-based
# test context: HEK293 HiBiT-CSNK1A1/LgBiT cells, 24 h incubation
This listing pairs compounds with measured DC50.

// known answers, use as guide
Cc1ccc2c(c1)CCCN2C(=O)Nc1ccc2c(c1)CN(C1CCC(=O)NC1=O)C2=O (stereo not shown) : < 0.1 µM
O=C1CCC(N2Cc3cc(NC(=O)N4CCCc5ccccc54)ccc3C2=O)C(=O)N1 (stereo not shown) : 0.1 to 1 µM
Cc1cccc2c1N(C(=O)Nc1ccc3c(c1)CN(C1CCC(=O)NC1=O)C3=O)CCC2 (stereo not shown) : 0.1 to 1 µM
O=C1CCC(N2Cc3cc(NC(=O)N4CCc5cc(C6CCC6)ccc54)ccc3C2=O)C(=O)N1 (stereo not shown) : < 0.1 µM
CC1c2ccccc2CCN1C(=O)Nc1ccc2c(c1)CN(C1CCC(=O)NC1=O)C2=O (stereo not shown) : < 0.1 µM
O=C1CCC(N2Cc3cc(NC(=O)N4c5cccc(F)c5C[C@H]4COCC(F)(F)F)ccc3C2=O)C(=O)N1 (stereo partly shown) : < 0.1 µM
O=C1CCC(N2Cc3cc(NC(=O)N4CCCc5cccc(Cl)c54)ccc3C2=O)C(=O)N1 (stereo not shown) : 0.1 to 1 µM
O=C1CCC(N2Cc3cc(NC(=O)N4CCc5cc(C6CCOC6)ccc54)ccc3C2=O)C(=O)N1 (stereo not shown) : < 0.1 µM

I am curious: what DC50 value has been reported for O=C1CCC(N2Cc3cc(NC(=O)N4CCCc5cccc(OC(F)F)c54)ccc3C2=O)C(=O)N1 (stereo not shown) ?
0.1 to 1 µM

Need DC50 of O=C1CCC(N2Cc3cc(NC(=O)N4Cc5ccccc5CC4c4ccccc4)ccc3C2=O)C(=O)N1 (stereo not shown) , thanks.
< 0.1 µM

Name the recorded DC50 for CC1(C)c2ccccc2CCN1C(=O)Nc1ccc2c(c1)CN(C1CCC(=O)NC1=O)C2=O (stereo not shown) .
> 1 µM

Fill in: DC50 of O=C1CCC(N2Cc3cc(NC(=O)N4CC(c5cccc(Cl)c5)C4)ccc3C2=O)C(=O)N1 (stereo not shown) is ___
< 0.1 µM

For the compound CC1Cc2ccccc2CN1C(=O)Nc1ccc2c(c1)CN(C1CCC(=O)NC1=O)C2=O (stereo not shown) , what DC50 is on record?
< 0.1 µM

Quick check: DC50 of Cc1cc2c(cc1C)N(C(=O)Nc1ccc3c(c1)CN(C1CCC(=O)NC1=O)C3=O)CC2 (stereo not shown) ?
< 0.1 µM

Reported DC50 for N#Cc1ccc2c(c1)N(C(=O)Nc1ccc3c(c1)CN(C1CCC(=O)NC1=O)C3=O)CC2 (stereo not shown) : what is it?
< 0.1 µM

Endpoint output: DC50 of O=C1CCC(N2Cc3cc(NC(=O)N4CCCC4c4ccccn4)ccc3C2=O)C(=O)N1 (stereo not shown) . Value?
0.1 to 1 µM

Which measured DC50 value corresponds to O=C1CCC(N2Cc3cc(NC(=O)N4CC5[C@@H](CCN5c5ccccc5)C4)ccc3C2=O)C(=O)N1 (stereo partly shown) ?
0.1 to 1 µM
